The measured values listed here are drawn from ChEMBL document CHEMBL5308504.

- testTarget: Cyclin-dependent kinase 2 (Homo sapiens) (UniProt P24941)
- conditionSummary: Compound concentration 20.0 uM, Protein concentration 2.0 uM, Result type QC Liability
- Description: Thermal Shift Assay. Domain: start/stop: M1-L298
# maps each entry to its ΔTm
Note: state the figure and append the unit.

Solved entries:
CC(C)c1nc2c(c3c1[C@@H](c1ccc(C(F)(F)F)cc1)OC31CCOCC1)[C@@H](O)CC(C)(C)C2 = 0.52 °C
Cc1nc(-c2ccc(C(F)(F)F)cc2)sc1C(=O)NCc1ccc(OC(C)(C)C(=O)O)cc1 = 0.76 °C
CCN1CCN(Cc2ccc(C(=O)Nc3ccc(C)c(Oc4ccc5c(c4)CC(=O)N5)c3)cc2C(F)(F)F)CC1 = 0.01 °C

Lookup: Please tell me the measured ΔTm for Cc1ccccc1Oc1cc(-n2c(=O)cc(C(F)(F)F)[nH]c2=O)c2ccccc2c1Cl ; system: Cyclin-dependent kinase 2 (Homo sapiens) (UniProt P24941).
Found: 0.61 °C

----------
- testTarget: Mitogen-activated protein kinase 1 (Homo sapiens)
- conditionSummary: Compound concentration 20.0 uM, Protein concentration 2.0 uM, Result type QC Liability
- Description: Thermal Shift Assay. Domain: start/stop: M1-S360
API: label(entry) gives true (1) if the entry's ΔTm is strictly smaller than 0.01 °C; on equality or larger values it gives false (0).

Please review the entries below; each comes with its answer.
CN1Cc2nccc(-c3cn(C)nc3-c3ccc(F)cc3)c2C1=O = false (0)
N#CN1CC[C@@H](C(=O)Nc2nc3c(s2)CN(C(=O)CN=[N+]=[N-])CC3)C1 = false (0)
CSc1ccc(C[C@@H](C)C(=O)O)cc1Nc1nc(N2CC[C@H](N(C)C)C2)cc(C(F)F)c1C#N = false (0)
Cc1cc(-c2nc(-c3ccc(OC(F)(F)F)cc3)no2)nn1Cc1ccnc(N2CCN(C3CC3)CC2)c1 = false (0)
CCCCC[C@@](C)(O)/C=C/[C@H]1C(=O)CC(O)C1C/C=C\CCCC(=O)O (some centres undefined) = true (1)
CNC(=O)c1c(F)cccc1Nc1nc(Nc2cc3c(cc2OC)CCN3C(=O)CN(C)C)nc2[nH]ccc12 = false (0)
C[S+]([O-])c1ccc(-c2nc(-c3cccc(I)c3)c(-c3ccncc3)[nH]2)cc1 (centres undefined) = true (1)

Moving on to another molecule below.
Lookup: Lab note: ΔTm threshold 0.01 °C. Does this molecule come in strictly under it? CC(C)C(=O)N[C@@H]1CCN(C(=O)Nc2nc3c(s2)-c2nc(-c4ccccc4Cl)ncc2CC3)C1
Found: false (0)

----------
- testTarget: Casein kinase I isoform delta (Homo sapiens) (UniProt P48730)
- Sequence (P48730 whole entry, looked up, canonical isoform): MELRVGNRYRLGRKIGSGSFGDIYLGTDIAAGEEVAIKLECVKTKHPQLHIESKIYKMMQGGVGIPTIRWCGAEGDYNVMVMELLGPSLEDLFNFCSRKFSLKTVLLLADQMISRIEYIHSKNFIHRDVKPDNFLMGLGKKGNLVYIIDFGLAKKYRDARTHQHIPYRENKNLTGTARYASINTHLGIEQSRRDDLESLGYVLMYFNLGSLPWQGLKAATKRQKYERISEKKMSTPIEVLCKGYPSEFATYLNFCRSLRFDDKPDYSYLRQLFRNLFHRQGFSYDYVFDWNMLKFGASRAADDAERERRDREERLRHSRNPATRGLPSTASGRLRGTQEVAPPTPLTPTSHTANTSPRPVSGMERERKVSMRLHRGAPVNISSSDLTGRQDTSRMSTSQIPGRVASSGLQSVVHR
- conditionSummary: Compound concentration 20.0 uM, Protein concentration 2.0 uM, Result type QC Liability
- Description: Thermal Shift Assay. Domain: start/stop: M1-K294
Class satisfied: ΔTm at least 0.6 °C. Class not satisfied: ΔTm below 0.6 °C.

Known results for compounds:
Cn1cncc1-c1cn(-c2cccc(C(=O)Nc3cccc(C(F)(F)F)c3)c2)nn1 = not satisfied
Cc1cc2ncnn2cc1Nc1ncc2c(n1)n(C1CCOCC1)c(=O)n2C = satisfied
C/C=C1\C(=O)CC2C3CCC4=CC(=O)CC[C@]4(C)C3CC[C@]12C (some centres undefined) = satisfied
COCc1nc2cnc3cc(-c4c(C)noc4C)c(OC[C@H]4CCNC4)cc3c2n1[C@H](C)c1ccccc1 = not satisfied
O=C(O)C[C@H]1CCn2c1c(Sc1ccc(Cl)cc1)c1ccc(F)cc12 = not satisfied

Now look at this one.
Lookup: Test whether the compound CN[C@@H](C)C(=O)N[C@H]1CN(C(=O)CC(C)C)CC[C@H]2CC[C@@H](C(=O)NC(c3ccccc3)c3ccccc3)N2C1=O records ΔTm of 0.6 °C or higher.
Found: not satisfied
